Cited source: paper PMC5100313

Target: Pfnek-2(V24C) (Plasmodium falciparum, UniProt C0H4G2, V24C)
Test: in vitro […]-ATP kinase assay (MBP substrate), washout, intact-protein LC-MS (mass shift […] Da)
Experimental Readout: IC50 (nM)
Response body: numeric value in nM, unit text excluded.

Challenge: State recorded IC50 with Pfnek-2(V24C) (Plasmodium falciparum, UniProt C0H4G2, V24C), entry C#Cc1nc(Nc2ccc(S(N)(=O)=O)cc2)nc2[nH]cnc12 [NCL-00016066] , no comment.
Response given: 501
